# herbicidal rate, Scirpus juncoides annotations
system: Scirpus juncoides; assay: Test Example 2: herbicidal effect test by treatment during growing period in paddy rice cultivation (seven days after seeding); assay type: in vivo; details: 120 g/10a, rated 14 days after treatment, paddy soil pots
Reply with just the number (in %).

Worked examples, 2 molecules total:
Task: Query: herbicidal rate, Scirpus juncoides; subject: Cc1c(Cc2ccccc2N(S(=O)(=O)C(F)(F)F)S(=O)(=O)C(F)(F)F)c(=O)on1CCOCc1ccccc1 [Compound 1-1059]
Output: 70

Task: Try Cc1c(Cc2ccccc2N(S(=O)(=O)C(F)(F)F)S(=O)(=O)C(F)(F)F)c(=O)on1S(=O)(=O)C(C)C [Compound 1-1064] next.
Output: 90

Kindly review the next molecule as well.
Task: Quick one: herbicidal rate, Scirpus juncoides for Cc1ccc(S(=O)(=O)N(c2ccccc2Cc2c(C)n(C(C)C)oc2=O)S(=O)(=O)C(F)(F)F)cc1 [Compound 1-1127] ?
Output: 90

###

tested on: Amaranthus viridis; experiment: Test Example 3: herbicidal effect test by treatment of dry field farming soil (one day after seeding); format: in vivo; conditions: Amaranthus viridis, 336 h, 120 g/10a active ingredient, evaluated 14 days after treatment, read-out: herbicidal rate, Amaranthus viridis
Entries whose pest or weed control at 1200 g/ha is below 80% take MET; entries at or above 80% take NOT MET.

Field: example entries. Status: answers known.
Task: Quick check: pest or weed control at 1200 g/ha of CCC(C)n1oc(=O)c(Cc2ccccc2N(C(=O)OC)S(=O)(=O)C(F)(F)F)c1C (stereo not drawn) under 80%?
Output: NOT MET

Task: Thanks! And Cc1c(Cc2ccccc2NS(=O)(=O)C(F)(F)F)c(=O)on1CC(C)C ?
Output: MET

Task: Entry COCC(C)n1oc(=O)c(Cc2ccccc2NS(=O)(=O)C(F)(F)F)c1C (stereo not drawn) please
Output: MET

Continuing:
Task: I wonder whether CCC(C)n1oc(=O)c(Cc2ccccc2N(S(=O)(=O)C(F)(F)F)S(=O)(=O)C(F)(F)F)c1C (stereo not drawn) has pest or weed control at 1200 g/ha below 80%. Can you tell?
Output: NOT MET

Task: Also CC(=O)N(c1ccccc1Cc1c(C)n(CC(C)C)oc1=O)S(=O)(=O)C(F)(F)F , if possible.
Output: NOT MET

Task: How about this compound: COCC(C)n1oc(=O)c(Cc2ccccc2N(S(=O)(=O)C(F)(F)F)S(=O)(=O)C(F)(F)F)c1C (stereo not drawn)
Output: MET

Task: Repeat with Cc1c(Cc2ccccc2N(S(=O)(=O)C(F)(F)F)S(=O)(=O)C(F)(F)F)c(=O)on1C(C)(C)C
Output: NOT MET

###

system: Scirpus juncoides; test: Test Example 2: herbicidal effect test by treatment during growing period in paddy rice cultivation (seven days after seeding); format: in vivo; details: 120 g/10a active ingredient, assessed 14 days after treatment, dry weight vs untreated area
parameter: Herbicidal rate (%) Scirpus juncoides
Please respond with the number in % and leave the unit unwritten.

Task: For Cc1c(Cc2ccccc2N(S(=O)(=O)C(F)(F)F)S(=O)(=O)C(F)(F)F)c(=O)on1Cc1ccc(F)cc1Cl [Compound 1-1028] , what is its reported Herbicidal rate (%) Scirpus juncoides?
Output: 0

Task: Record: Cc1c(Cc2ccccc2N(C(=O)CC(C)C)S(=O)(=O)C(F)(F)F)c(=O)on1C(C)c1ccccc1 (centres unmarked) [Compound 1-359]
Output: 90

Task: Also Cc1c(Cc2cc(F)ccc2NS(=O)(=O)C(F)(F)F)c(=O)on1CC(C)C [Compound 1-28] , if possible.
Output: 90

Task: Lookup CCC(C)n1oc(=O)c(Cc2ccccc2N(C(=O)OC(C)C)S(=O)(=O)C(F)(F)F)c1C (centres unmarked) [Compound 1-642]
Output: 90

Task: And the next one, Cc1c(Cc2ccccc2N(C(=O)c2ccccc2)S(=O)(=O)C(F)(F)F)c(=O)on1C(C)(C)C [Compound 1-473] ?
Output: 90

Others:
Task: I am curious: what Herbicidal rate (%) Scirpus juncoides value has been reported for CCOC(=O)N(c1ccccc1Cc1c(C)n(CC(C)(C)C)oc1=O)S(=O)(=O)C(F)(F)F [Compound 1-609] ?
Output: 90

Task: CSCCn1oc(=O)c(Cc2ccccc2N(C(=O)C2CC2)S(=O)(=O)C(F)(F)F)c1C [Compound 1-413] ?
Output: 90

Task: // query: COCCOC(=O)N(c1ccccc1Cc1c(C)n(CCSC)oc1=O)S(=O)(=O)C(F)(F)F [Compound 1-735]
Output: 90

Task: CCC(C)Cn1oc(=O)c(Cc2ccccc2N(S(=O)(=O)C(F)(F)F)S(=O)(=O)C(F)(F)F)c1C (centres unmarked) [Compound 1-972] , same question.
Output: 90

Task: Next record, please: Cc1c(Cc2ccccc2N(S(C)(=O)=O)S(=O)(=O)C(F)(F)F)c(=O)on1CC(C)(C)C [Compound 1-893]
Output: 90

Task: Follow-up entry: C=CC(C)n1oc(=O)c(Cc2ccccc2NS(=O)(=O)C(F)(F)F)c1C (centres unmarked) [Compound 1-136]
Output: 90

Task: How about this compound: Cc1c(Cc2ccccc2NS(=O)(=O)C(F)(F)F)c(=O)on1C(C)c1ccc(F)cc1 (centres unmarked) [Compound 1-204]
Output: 80

Task: Then what about the compound Cc1c(Cc2ccccc2N(S(=O)(=O)C(F)(F)F)S(=O)(=O)C(F)(F)F)c(=O)on1C(C)c1ccccc1 (centres unmarked) [Compound 1-1030] ?
Output: 90

Task: Also, CCS(=O)(=O)N(c1ccccc1Cc1c(C)n(C(C)c2ccccc2)oc1=O)S(=O)(=O)C(F)(F)F (centres unmarked) [Compound 1-917] please.
Output: 90
